Where do the numbers come from? From ChEMBL document CHEMBL1138374.

- Tested System: Cannabinoid receptor 2 (Homo sapiens, UniProt P34972)
- Sequence (P34972 whole entry): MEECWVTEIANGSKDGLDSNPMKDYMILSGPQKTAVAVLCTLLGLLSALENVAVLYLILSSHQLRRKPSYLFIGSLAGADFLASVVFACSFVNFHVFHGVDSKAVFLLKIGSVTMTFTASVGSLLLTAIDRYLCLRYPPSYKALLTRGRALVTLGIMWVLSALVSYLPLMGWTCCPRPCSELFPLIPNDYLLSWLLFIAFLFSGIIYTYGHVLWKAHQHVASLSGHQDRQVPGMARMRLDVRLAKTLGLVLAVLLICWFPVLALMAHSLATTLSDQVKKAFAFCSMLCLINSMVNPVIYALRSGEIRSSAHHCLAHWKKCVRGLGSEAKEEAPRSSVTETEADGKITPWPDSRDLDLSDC
Measured Metric: Ki (nM)

Cc1ccc(C(=O)Oc2cccc3cccnc23)cc1S(=O)(=O)N1CCCCC1 | 25.1

====

- Tested System: Cannabinoid receptor 1 (Homo sapiens)
- Sequence (P21554 whole entry): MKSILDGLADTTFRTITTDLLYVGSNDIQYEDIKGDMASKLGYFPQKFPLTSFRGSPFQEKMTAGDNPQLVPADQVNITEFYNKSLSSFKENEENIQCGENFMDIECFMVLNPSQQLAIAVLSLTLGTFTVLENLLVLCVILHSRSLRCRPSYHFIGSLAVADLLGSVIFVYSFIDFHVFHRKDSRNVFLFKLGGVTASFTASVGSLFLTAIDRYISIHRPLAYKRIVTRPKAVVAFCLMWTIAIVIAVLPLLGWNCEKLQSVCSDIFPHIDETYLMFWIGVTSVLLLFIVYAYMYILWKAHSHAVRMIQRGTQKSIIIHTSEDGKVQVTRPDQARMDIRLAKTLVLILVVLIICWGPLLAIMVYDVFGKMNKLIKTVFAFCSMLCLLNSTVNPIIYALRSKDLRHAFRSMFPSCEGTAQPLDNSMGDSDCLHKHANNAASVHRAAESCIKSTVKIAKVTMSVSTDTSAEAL
- Assay Notes: Binding affinity to human recombinant CB1 receptor
Threshold check on IC50: strictly below 1000 nM is Condition met; on or above 1000 nM is Condition not met.

Cc1ccc(NC(=O)c2ccc(C)c(S(=O)(=O)N3CCCCC3)c2)nc1 | Condition not met
Cc1ccc(NC(=O)c2ccccc2Oc2ccccc2)cc1S(=O)(=O)N1CCOCC1 | Condition not met
O=C(Nc1ccc(Cl)c(S(=O)(=O)N2CCOCC2)c1)c1ccccc1 | Condition not met
Cc1ccc(C(=O)Nc2ccccc2)cc1S(=O)(=O)N1CCCCC1 | Condition not met
Cc1ccc(C(=O)Oc2cccc3cccnc23)cc1S(=O)(=O)N1CCCCC1 | Condition met
Cc1ccc(C(=O)Oc2cccc3cccnc23)cc1S(=O)(=O)N1CCOCC1 | Condition met
COc1ccccc1NC(=O)c1cccc(S(=O)(=O)N2CCCCC2)c1 | Condition not met
Cc1ccc(C(=O)Nc2cccc3cnccc23)cc1S(=O)(=O)N1CCCCC1 | Condition not met
Nc1cccc(NC(=O)c2cccc(S(=O)(=O)N3CCCCC3)c2)c1 | Condition not met
Cc1ccc(C(=O)Nc2cccc(F)c2)cc1S(=O)(=O)N1CCCCC1 | Condition not met
Cc1ccc(C(=O)Oc2ccccc2Br)cc1S(=O)(=O)N1CCOCC1 | Condition met
O=C(Nc1ccc(Cl)c(S(=O)(=O)N2CCOCC2)c1)c1ccccc1Cl | Condition not met
Cc1ccc(NC(=O)c2ccc(C)c(S(=O)(=O)N3CCCCC3)c2)cc1 | Condition not met
